Peptide text beside a SMILES is read from it.
Reported property: Stability observed AUC

A. CC(C)[C@H](N)C(=O)N[C@@H](Cc1ccc(O)cc1)C(=O)O [Val-Tyr] (H-Val-Tyr-OH)
B. N[C@@H](Cc1ccc(O)cc1)C(=O)N1CCC[C@H]1C(=O)O [Tyr-Pro] (H-Tyr-Pro-OH)
Please tell me which of the two, A or B , has the higher reported Stability observed AUC value. # answer = label of selected item
B

P. N[C@@H](CO)C(=O)N1CCC[C@H]1C(=O)O [Ser-Pro] (H-Ser-Pro-OH)
Q. NC(N)=NCCC[C@H](N)C(=O)N[C@@H](Cc1c[nH]c2ccccc12)C(=O)O [Arg-Trp] (H-Arg-Trp-OH)
Identify the entry with the smaller Stability observed AUC: P or Q . # answer = label of selected item
Q

These data points were gathered from patent EP2161029A1.
